Ref: the nanobody polyreactivity screen of Harvey et al. (2022)

Experiment: yeast display, Sf9 membrane polyspecificity reagent, FACS + sequencing; frameworks hold sequencing errors
Property: polyreactivity (PSR sort gate)

Previously resolved entries follow.
Sequence Text | polyreactivity (PSR sort gate)
QVQLVESGGGLVQAGGSLRLSCAASGSISYEFAMGWYRQAPGKERELVASIDSDGAGTYYADSVKGRFTISRDNAKNTVYLQMNSLKPEDTAVYYGNAEWYYPYYYSRMDYWGQGTQVTVSS | low polyreactivity
QDQLVQSGGGIVQAGGSLRLSCAASGSTFILYAMGWYRQAPGKESELVAAISTSGGSTYYADSVKGRVTISRDNAKNTVYFHMNSLKPDDTAVYYCIAGLSVTHGTSIPFRKYEYWGQGTQVNVSS | low polyreactivity
QVQLVESGGGLVQAGGSLRLSCAASGSIFLVNAMGWYRQAPGKVRELVAAITYGGDSTYYADSVKGRFTISRDHAQNTVYLQMNSLKPEDTAVYYCAADAWVGWHDEYDYWGQGTQVTVSA | low polyreactivity
QVQLVESGGGLVQAGGSLRLSCAASGLTFQKNVMGWYRQAPGKERELVAAIRASSSSTYYADSVKGRFTISRDNAKNTVYLQMNSLKPEDTAVYYCAAPRLIKYDYWGQGTQVTVSS | high polyreactivity
QVQLVESGGGLVQAGGSLRLSCAASGSTFLYYTMGWYRQAPGKERELVAAITSGGDTNYADSVKGRFTISRDNAKNTVYLQINSLKPEDTAVYYCNAEYTWSGTKIYTYKYDYWGQGTQVTVSS | low polyreactivity
QVQLVESGGGLVQAGGSLRLSCAASGRIFFANTMGWYRQAPGKERELVAAISLSSGTTYYADSVKGRFTISRDNAKNTVYLQMNSLKPDETAVYYCAARGYSHVASRLYYYWGQGTQVTVSS | high polyreactivity

Quick check: polyreactivity (PSR sort gate) of QVQRVESRGGLVQAGGSLRLSCAASGSTFHRYVKGWSRTATGKERELVSVINSTGASTYYADSVKWRYTLSRDNAKNSVYLQMNSLKPEDTAVYYCARVTRRGPGYTTLYSRYDYWGQGTQVTVSS ?
low polyreactivity

What do you have for QVHLVDSGGGLVQAGGSLRLSSAASGRIFGHYALGGYRQAPGKPRELVAAIRYSAGRTYYAGSVKGRFTISRDNAKNSVNLQMNSLKPEDTSVYYCAKTCRYLTGGGDYWGQGTQVTVSS ?
high polyreactivity

And the next one, QVQLVESVGGLVQAGGSLRLSCPASGSTFRRYAMGWYRQAPGKERELVAAITRGGITYYADSVKGRFTISRDNAKNTFYLQMNSLKPEDTAVYYCAATTFGPYALYPRYYYWGQGTQVTVSS ?
high polyreactivity

Try QVQLVESGGGLVQAGGSLRLSCAASGSIFADYTMGWYRQAPGKERELVAAITSGGSTYYADSVKGRFTISRDNAKNTVYLQMNSLKPEDTAVYYCAAYYGGRGYWGQGTQVTVSS next.
low polyreactivity

---

Assay: yeast display, Sf9 membrane polyspecificity reagent, FACS + sequencing; frameworks hold sequencing errors
Property: polyreactivity (PSR sort gate)

See these solved cases before continuing.
Sequence Text | polyreactivity (PSR sort gate)
QVQLVESGGGLVQAGGRLRLSCPASGLIFSYYAMGWYRQEPGKERELVAAISRGGSTNYADSVKGRFTISRDNAKNTVYLQMNSLKPEDTAVYYCAARFVLRRDYGYWGQGTQVTVSS | high polyreactivity
QVQLVESGGGLVQAGGSLRLSCAASGSTFRWNTMGWYIQAPGKERELVAAISYSGGITYYADSVKGRFTISRDNAKNTVYLQMNSLKPEDTAVYYCYATRVRGWYVTRYYYWGQGSQVTVSS | high polyreactivity
QVQLVVSGGGLVQAGGSLRLSCAASGITFYYNAMGWYRQAPGKEGEVVAAITRRGGSTYYADSVKGRFTISRDNAKNTVYLQMNSLIPEDTAVYYCAKYIYGYKDSPLGDDYWGQGTQVTVSS | high polyreactivity
QVQLVESGGGLVQAGGSLRLSCAASGRIFVYYVMGWYRQAPGKERELVAAITYSGGSTYYADSVKGRFTISRDNAKNTVYLQMNRLKTEDTAVYYCNKVDAFGIVRLYYWGQGTQVTVSS | low polyreactivity
QVQLVESGGGLVQAGGSLRLSCAASGRTFGWYAMGWYRQAPGKERELVASITQRGGRTYYADSVKGRFTISRDNAKNTVYLQMNSLIPEDTAVYYCAARGATVSSRIYGYWGQGTQVTVSS | high polyreactivity

Would you kindly look at the next entry?
I would be grateful if you could share the reported polyreactivity (PSR sort gate) for QVQLVESGGGLVQAGGSLRLICAASGSIFWGYAIGWFRPAPGKERELVAGITATGGSTYYADSVKGRFTISRDNAKNTVYLPMNSLKPEDTAVYYCAAEHGRLATYTWWVIYDYWGHGTQVTVSS .
low polyreactivity
